Tested on: Jurkat
Assay: Cellular assay in a Fas-induced model of apoptosis in Jurkat cells
Type: functional, cell-based
Conditions: Homo sapiens
measureName: IC50 (µM)

>>> recordedmeasurement("CC(C)[C@H](NC(=O)COc1cccc2ccccc12)C(=O)N[C@@H](CC(=O)O)C(=O)COc1cc(F)c(F)cc1F")
39.3
>>> recordedmeasurement("CC(C)[C@H](NC(=O)COc1cccc2ccccc12)C(=O)N[C@@H](CC(=O)O)C(=O)COP(=O)(c1ccccc1)c1ccccc1")
18.4
>>> recordedmeasurement("CC(C)[C@H](NC(=O)COc1cccc2ccccc12)C(=O)N[C@@H](CC(=O)O)C(=O)COc1ccccc1")
14
>>> recordedmeasurement("CC(C)[C@H](NC(=O)COc1cccc2ccccc12)C(=O)N[C@@H](CC(=O)O)C(=O)COc1c(F)ccc(F)c1F")
1.2
>>> recordedmeasurement("CC(C)[C@H](NC(=O)COc1cccc2ccccc12)C(=O)N[C@@H](CC(=O)O)C(=O)COc1cc(F)cc(F)c1F")
30

1. CC(C)[C@H](NC(=O)COc1cccc2ccccc12)C(=O)N[C@@H](CC(=O)O)C(=O)COc1c(F)cc(F)cc1F
2. CC(C)[C@H](NC(=O)COc1cccc2ccccc12)C(=O)N[C@@H](CC(=O)O)C(=O)COc1cccc(C(F)(F)F)c1F
3. CC(C)[C@H](NC(=O)COc1cccc2ccccc12)C(=O)N[C@@H](CC(=O)O)C(=O)COc1c(Cl)cccc1Cl
INPUT: Write the entries in order, lowest recorded IC50 first. List labels; respect the requested ordering.
OUTPUT: 3, 1, 2

* * *

Species on record: Homo sapiens
Experiment: Cellular assay in an inflammation model measuring IL1-beta secretion from isolated human monocytes induced with Staph A
Type: functional
pIC50: −log10 of the molar value.
measureName: pIC50

Some solved entries appear below for comparison.
>>> recordedmeasurement("CC(C)[C@H](NC(=O)COc1cccc2ccccc12)C(=O)N[C@@H](CC(=O)O)C(=O)COc1ccc(C#N)cc1")
4.57
>>> recordedmeasurement("CC(C)[C@H](NC(=O)COc1cccc2ccccc12)C(=O)N[C@@H](CC(=O)O)C(=O)COc1cccc(C(F)(F)F)c1F")
4.74
>>> recordedmeasurement("CC(C)[C@H](NC(=O)COc1cccc2ccccc12)C(=O)N[C@@H](CC(=O)O)C(=O)COc1ccc([N+](=O)[O-])cc1")
4.64

a. CC(C)[C@H](NC(=O)COc1cccc2ccccc12)C(=O)N[C@@H](CC(=O)O)C(=O)CF
b. CC(C)[C@H](NC(=O)COc1cccc2ccccc12)C(=O)N[C@@H](CC(=O)O)C(=O)COc1cc(F)ccc1F
INPUT: Between the entries labeled a and b , whose measured pIC50 is lower? Your choice should be expressed through its label.
OUTPUT: b

* * *

Molecular target: Caspase-3 (Homo sapiens) (UniProt P42574)
Assay: Inhibitory activity against caspase-3 (Csp-3)
measureName: k3/Ki (M⁻¹ s⁻¹)

The cases that follow already have their k3/Ki on record.
>>> recordedmeasurement("CC(C)[C@H](NC(=O)COc1cccc2ccccc12)C(=O)N[C@@H](CC(=O)O)C(=O)COc1ccc(F)c(F)c1F")
35800
>>> recordedmeasurement("CC(C)[C@H](NC(=O)COc1cccc2ccccc12)C(=O)N[C@@H](CC(=O)O)C(=O)COc1c(F)cccc1F")
200000
>>> recordedmeasurement("CC(C)[C@H](NC(=O)COc1cccc2ccccc12)C(=O)N[C@@H](CC(=O)O)C(=O)COc1ccc(Oc2ccccc2)cc1")
9520
>>> recordedmeasurement("CC(C)[C@H](NC(=O)COc1cccc2ccccc12)C(=O)N[C@@H](CC(=O)O)C(=O)COc1cccc2ccccc12")
"1.96e+06"
>>> recordedmeasurement("CC(C)[C@H](NC(=O)COc1cccc2ccccc12)C(=O)N[C@@H](CC(=O)O)C(=O)COc1ccc(-c2ccccc2)cc1")
9990

I. CC(C)[C@H](NC(=O)COc1cccc2ccccc12)C(=O)N[C@@H](CC(=O)O)C(=O)COc1cc(F)ccc1F
II. CC(C)[C@H](NC(=O)COc1cccc2ccccc12)C(=O)N[C@@H](CC(=O)O)C(=O)COP(=O)(c1ccccc1)c1ccccc1
III. CC(C)[C@H](NC(=O)COc1cccc2ccccc12)C(=O)N[C@@H](CC(=O)O)C(=O)COc1cc(C(F)(F)F)cc(C(F)(F)F)c1
IV. CC(C)[C@H](NC(=O)COc1cccc2ccccc12)C(=O)N[C@@H](CC(=O)O)C(=O)COC(=O)c1c(Cl)cccc1Cl
V. CC(C)[C@H](NC(=O)COc1cccc2ccccc12)C(=O)N[C@@H](CC(=O)O)C(=O)COc1ccc(C(=O)c2ccccc2)cc1
INPUT: Arrange the 5 molecules by rising k3/Ki, starting with the smallest. The labels, placed in the requested order, form the answer.
OUTPUT: III, V, I, II, IV

I. CC(C)[C@H](NC(=O)COc1cccc2ccccc12)C(=O)N[C@@H](CC(=O)O)C(=O)COc1ccc(OC(F)(F)F)cc1
II. CC(C)[C@H](NC(=O)COc1cccc2ccccc12)C(=O)N[C@@H](CC(=O)O)C(=O)COc1c(F)c(F)c(F)c(F)c1F
INPUT: Hi! Which is lower in terms of k3/Ki, the first one I or the second one II ? Answer format: the label of the selected item.
OUTPUT: I

* * *

Molecular target: Caspase-8 (Homo sapiens)
Assay: Inhibitory activity against caspase-8 (Csp-8)
measureName: k3/Ki (M⁻¹ s⁻¹)

>>> recordedmeasurement("CC(C)[C@H](NC(=O)COc1cccc2ccccc12)C(=O)N[C@@H](CC(=O)O)C(=O)COP(=O)(c1ccccc1)c1ccccc1")
59300
>>> recordedmeasurement("CC(C)[C@H](NC(=O)COc1cccc2ccccc12)C(=O)N[C@@H](CC(=O)O)C(=O)COc1cc(C(F)(F)F)cc(C(F)(F)F)c1")
68
>>> recordedmeasurement("CC(C)[C@H](NC(=O)COc1cccc2ccccc12)C(=O)N[C@@H](CC(=O)O)C(=O)COC(=O)c1c(Cl)cccc1Cl")
17000

1. CC(C)[C@H](NC(=O)COc1cccc2ccccc12)C(=O)N[C@@H](CC(=O)O)C(=O)CF
2. CC(C)[C@H](NC(=O)COc1cccc2ccccc12)C(=O)N[C@@H](CC(=O)O)C(=O)COc1ccc(C#N)cc1
3. CC(C)[C@H](NC(=O)COc1cccc2ccccc12)C(=O)N[C@@H](CC(=O)O)C(=O)COc1ccc(F)c(F)c1F
4. CC(C)[C@H](NC(=O)COc1cccc2ccccc12)C(=O)N[C@@H](CC(=O)O)C(=O)COc1cccc(OC(F)(F)F)c1
INPUT: Rank items: key k3/Ki, increasing. In plain terms: list the labels in the order you were asked to.
OUTPUT: 2, 4, 3, 1

* * *

Protein target, amino acids: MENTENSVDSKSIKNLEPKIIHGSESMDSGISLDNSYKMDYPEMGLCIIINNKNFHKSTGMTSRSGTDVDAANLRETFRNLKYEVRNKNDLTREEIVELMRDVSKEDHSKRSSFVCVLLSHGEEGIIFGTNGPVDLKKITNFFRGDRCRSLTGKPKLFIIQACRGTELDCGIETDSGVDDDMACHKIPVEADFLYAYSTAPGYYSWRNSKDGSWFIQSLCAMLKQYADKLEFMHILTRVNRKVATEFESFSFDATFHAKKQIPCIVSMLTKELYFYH
measureName: Ki (nM)
Please state the figure in nM; there is no need to write the unit.

INPUT: What does the record list as Ki for "CC(C)[C@H](NC(=O)COc1cccc2ccccc12)C(=O)N[C@@H](CC(=O)O)C(=O)COc1cccc2ccccc12" ?
OUTPUT: 7.1

* * *

Molecular target: Caspase-1 (Mus musculus)
Sequence (whole entry): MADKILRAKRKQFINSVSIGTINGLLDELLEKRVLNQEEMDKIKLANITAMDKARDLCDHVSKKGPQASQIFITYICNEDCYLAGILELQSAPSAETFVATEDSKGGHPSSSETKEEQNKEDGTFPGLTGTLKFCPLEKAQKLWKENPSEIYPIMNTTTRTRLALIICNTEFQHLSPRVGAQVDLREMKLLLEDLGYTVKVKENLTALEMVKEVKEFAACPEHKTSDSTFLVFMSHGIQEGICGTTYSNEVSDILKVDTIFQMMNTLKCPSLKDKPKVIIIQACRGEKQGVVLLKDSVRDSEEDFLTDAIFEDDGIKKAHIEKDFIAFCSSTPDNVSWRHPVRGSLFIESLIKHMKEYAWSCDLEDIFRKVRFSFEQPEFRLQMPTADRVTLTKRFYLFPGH
Assay: Inhibitory activity against murine caspase-1
measureName: k3/Ki (M⁻¹ s⁻¹)

Recorded k3/Ki, per entry:
>>> recordedmeasurement("CC(C)[C@H](NC(=O)COc1cccc2ccccc12)C(=O)N[C@@H](CC(=O)O)C(=O)COc1cc(F)cc(F)c1")
2170
>>> recordedmeasurement("CC(C)[C@H](NC(=O)COc1cccc2ccccc12)C(=O)N[C@@H](CC(=O)O)C(=O)COc1ccc(F)cc1F")
8400
>>> recordedmeasurement("CC(C)[C@H](NC(=O)COc1cccc2ccccc12)C(=O)N[C@@H](CC(=O)O)C(=O)COc1ccccc1C(F)(F)F")
5630
>>> recordedmeasurement("CC(C)[C@H](NC(=O)COc1cccc2ccccc12)C(=O)N[C@@H](CC(=O)O)C(=O)COc1c(F)c(F)c(-c2c(F)c(F)c(F)c(F)c2F)c(F)c1F")
6680

a. CC(C)[C@H](NC(=O)COc1cccc2ccccc12)C(=O)N[C@@H](CC(=O)O)C(=O)COc1cccc(F)c1
b. CC(C)[C@H](NC(=O)COc1cccc2ccccc12)C(=O)N[C@@H](CC(=O)O)C(=O)COC(=O)c1c(Cl)cccc1Cl
INPUT: Recorded k3/Ki values differ for a and b ; which one is higher? // respond with label for picked entry
OUTPUT: b
